Target: Notum (Homo sapiens, UniProt Q6P988, C330S)
Sequence (Q6P988 81-451 C330S): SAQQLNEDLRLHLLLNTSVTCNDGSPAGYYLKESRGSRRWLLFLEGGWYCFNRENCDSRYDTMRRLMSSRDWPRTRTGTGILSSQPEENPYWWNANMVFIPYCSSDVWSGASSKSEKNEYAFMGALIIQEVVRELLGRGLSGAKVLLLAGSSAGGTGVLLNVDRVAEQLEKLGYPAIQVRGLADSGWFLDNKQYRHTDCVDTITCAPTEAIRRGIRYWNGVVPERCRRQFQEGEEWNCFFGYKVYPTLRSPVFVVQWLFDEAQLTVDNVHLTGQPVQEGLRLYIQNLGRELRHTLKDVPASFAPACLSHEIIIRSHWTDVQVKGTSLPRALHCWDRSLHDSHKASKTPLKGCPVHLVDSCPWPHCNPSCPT
Assay: biochemical
Conditions: Notum IC50, OPTS substrate; 10-point curves 30 nM to 1 mM; mean ± s.d. of N = 2–4 unless stated; Table 1 and figures
measureName: IC50 (µM)

Sample records with IC50:
compound=CCc1noc(C)c1C(=O)Nc1cc(C)on1 measurename=IC50 testvalue=980
compound="CC(=O)Nc1ccc(Nc2ccccc2)cc1 [compound 25, N-(4-Anilinophenyl)acetamide]" measurename=IC50 testvalue=86
compound=N#CNc1nc2ccccc2[nH]1 measurename=IC50 testvalue=17
compound=COC(=O)COc1ccc(C#N)cc1 measurename=IC50 testvalue=410
compound=CC1CCN(Cc2c[nH]c3ccccc23)CC1 measurename=IC50 testvalue=120

1 = COCC(=O)NCc1ccccc1
2 = Nc1nonc1N1CCCCC1
q: Determine, for 1 and 2 , which has the greater value of IC50. Choose, then provide that item's label.
a: 2
(2: 110 µM, 1: 68 µM)

* * *

Target: Notum (Homo sapiens, UniProt Q6P988, C330S)
Conditions: LLE = pIC50 – clogP
measureName: LLE (lipophilic ligand efficiency)

Sample records with LLE (lipophilic ligand efficiency):
smilesnotation=COc1ccc(CNC(=O)[C@@H]2CCCO2)cc1 testvalue=2.7
smilesnotation=Nc1ccc(NCc2cccnc2)c(C(=O)O)c1 testvalue=3.0

1 = COCC(=O)NCc1ccccc1
2 = Cc1ccccc1CNc1nnnn1C
q: # min-compare on LLE (lipophilic ligand efficiency) between 1 and 2 Choose, then provide that item's label.
a: 2
(2: 2.0, 1: 3.2)

* * *

Target: Notum (Homo sapiens, UniProt Q6P988, C330S)
Sequence (Q6P988 81-451 C330S): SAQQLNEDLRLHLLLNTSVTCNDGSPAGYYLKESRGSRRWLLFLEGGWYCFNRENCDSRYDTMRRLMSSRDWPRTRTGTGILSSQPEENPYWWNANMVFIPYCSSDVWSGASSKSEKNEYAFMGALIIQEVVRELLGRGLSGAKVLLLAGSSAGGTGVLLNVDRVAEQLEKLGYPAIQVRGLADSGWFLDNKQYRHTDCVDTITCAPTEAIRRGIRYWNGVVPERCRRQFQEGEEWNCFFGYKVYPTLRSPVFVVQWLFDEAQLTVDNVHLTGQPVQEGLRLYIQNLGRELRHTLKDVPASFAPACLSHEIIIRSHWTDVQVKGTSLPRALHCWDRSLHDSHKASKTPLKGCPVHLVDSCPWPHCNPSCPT
Conditions: LE = 1.4(−pIC50)/HAC
measureName: LE (ligand efficiency)

smilesnotation=c1ccc(CNCc2ccc3c(c2)OCO3)nc1 measurename="LE (ligand efficiency)" testvalue=0.33
smilesnotation=OCc1ccc(-n2cnc3ccccc32)cc1 measurename="LE (ligand efficiency)" testvalue=0.35
smilesnotation=CCn1c(NC(C)=O)nc2ccccc21 measurename="LE (ligand efficiency)" testvalue=0.33
smilesnotation=COCC(=O)Nc1nc(-c2ccccc2)cs1 measurename="LE (ligand efficiency)" testvalue=0.32
smilesnotation=Cc1ccccc1CNc1nnnn1C measurename="LE (ligand efficiency)" testvalue=0.38
smilesnotation=CC(=O)Nc1ccc2nsnc2c1 measurename="LE (ligand efficiency)" testvalue=0.38
